Reported inhibition at 10 µM by item:
System: B16F10 (malignant melanoma)
Assay: Antiproliferative activity (CCK-8 cell viability), B16F10
Format: cell-based
Conditions: Mus musculus, B16-F10, Compound concentration: 10 μM, 72 h, read-out: Antiproliferative activity in cancerous cells, B16F10 (inhibition of cell growth)
Protocol: The antiproliferative activity of a compound was determined in the following cell lines: MDA-MB-231 (breast cancer), HepG2 (liver cancer), SW480 (colon cancer), B16F10 (malignant melanoma), A431 (epidermoid carcinoma), A549 (lung adenocarcinoma), and HeLa (cervical cancer). […] Briefly cells were seeded in a 96-well plate at a density of 2,000-5,000 cells/well. […] After incubation at 37° C. for 4 h, the absorbance value of each well was determined using a multi-well plate reader at 450 nm. […]
readout-kind: inhibition at 10 µM

>>> df
                       smiles_representation  measured_result
 0  CC1=C(CC(=O)O)c2cc(F)ccc2/C1=C/c1cccc(COc2ccc(F)cc2F)c1        30 to 50%
 1  CC1=C(CC(=O)O)c2ccc(F)c(F)c2/C1=C\c1cccc(Oc2ccccc2)c1            ≥ 50%
 2  CC1=C(CC(=O)O)c2cc(F)ccc2/C1=C\c1cccc(CSc2ccc(F)cc2)c1            ≥ 50%
 3  CCC1=C(CC(=O)O)c2cc(F)ccc2/C1=C\c1ccc(Oc2ccc(F)cc2)cc1            ≥ 50%
 4  COc1ccc(Oc2cccc(/C=C3/C(C)=C(CC(=O)O)c4cc(F)ccc43)c2)cc1Cl            ≥ 50%
 5  CC1=C(CC(=O)O)c2ccc(Cl)cc2/C1=C\c1ccc(Oc2ccc(F)cc2)cc1            < 30%
 6  CC1=C(CC(=O)O)c2cc(Cl)ccc2/C1=C/c1ccc(Oc2ccc(C(C)C)cc2)cc1            ≥ 50%
 7  CC1=C(CC(=O)O)c2ccc(F)cc2/C1=C\c1ccc(COc2ccccc2)cc1            ≥ 50%
 8  CC1=C(CC(=O)O)c2cc(F)ccc2/C1=C\c1ccc(Oc2ccc(I)cc2)cc1            ≥ 50%
 9  O=C(O)CC1=C(Cc2ccc(Oc3ccc(F)cc3)cc2)/C(=C/c2ccc(C(F)(F)F)cc2)c2ccc(F)cc21            ≥ 50%
10  CC1=C(CC(=O)O)c2cc(F)ccc2/C1=C\c1ccc(OCc2cc3ccccc3s2)cc1            ≥ 50%
11  COc1ccc2c(c1)/C(=C\c1ccc(Oc3ccc(F)cc3)cc1)C(C)=C2CC(=O)O            ≥ 50%
12  CCc1ccc2c(c1)C(CC(=O)O)=C(C)/C2=C/c1ccc(COc2ccc(F)cc2)cc1            ≥ 50%
13  CC1=C(CC(=O)O)c2cc(F)ccc2/C1=C/c1ccc(Oc2ccc(Cl)c(Cl)c2)cc1            ≥ 50%
14  CC1=C(CC(=O)O)c2cc(F)ccc2/C1=C\c1cccc(Oc2ccc(O)c(Cl)c2)c1            ≥ 50%
15  CC1=C(CC(=O)O)c2cc(I)ccc2/C1=C\c1ccc(Oc2ccc(F)cc2)cc1            ≥ 50%
16  CC1=C(CC(=O)O)c2cc(F)cc(F)c2/C1=C/c1cccc(COc2ccccc2)c1            < 30%
17  CC1=C(CC(=O)O)c2cc(F)ccc2/C1=C\c1cccc(Oc2ccc3ccccc3c2)c1            ≥ 50%
